Biological target: human D2 receptor (Homo sapiens, UniProt P14416)
Sequence (P14416 whole entry): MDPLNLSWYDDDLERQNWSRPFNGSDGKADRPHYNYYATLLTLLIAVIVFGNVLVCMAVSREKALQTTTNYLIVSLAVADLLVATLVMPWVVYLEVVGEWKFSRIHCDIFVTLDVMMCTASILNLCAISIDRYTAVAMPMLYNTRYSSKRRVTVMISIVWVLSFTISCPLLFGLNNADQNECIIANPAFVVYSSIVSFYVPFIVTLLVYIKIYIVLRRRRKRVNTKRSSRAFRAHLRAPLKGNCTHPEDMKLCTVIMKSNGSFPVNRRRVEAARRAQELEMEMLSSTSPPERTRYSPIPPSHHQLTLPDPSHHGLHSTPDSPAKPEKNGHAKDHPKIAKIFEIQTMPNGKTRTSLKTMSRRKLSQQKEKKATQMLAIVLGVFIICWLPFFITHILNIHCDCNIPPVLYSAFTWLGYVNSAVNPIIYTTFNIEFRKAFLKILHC
Experiment: Radioligand binding, [3H]-methylspiperon, CHO-K1 cell membranes
Conditions: read-out: Dopaminergic Ki D2
PARAMETER: Ki (nM)
Report the figure in nM without appending any unit label.

Give recorded Ki. COc1ccccc1N1CCN(CCOCCOc2c(C)cccc2Cl)CC1
54

Look up and report measured Ki for this entry: COc1ccccc1N1CCN(CCOCCOc2c(C)cccc2C)CC1
219

---

What follows is a record of Ki for human 5-HT2A receptor (Homo sapiens, UniProt P28223).
Report as a plain number; the unit nM is understood.

Provide measured Ki value, entry: COc1ccccc1N1CCN(CCOCCOc2c(C)cccc2C)CC1
264

Provide measured Ki value, entry: COc1ccccc1N1CCN(CCOCCOc2c(C)cccc2Cl)CC1
109

---

Biological target: human serotonin 5-HT7 receptor (Homo sapiens)
Sequence (P34969 whole entry): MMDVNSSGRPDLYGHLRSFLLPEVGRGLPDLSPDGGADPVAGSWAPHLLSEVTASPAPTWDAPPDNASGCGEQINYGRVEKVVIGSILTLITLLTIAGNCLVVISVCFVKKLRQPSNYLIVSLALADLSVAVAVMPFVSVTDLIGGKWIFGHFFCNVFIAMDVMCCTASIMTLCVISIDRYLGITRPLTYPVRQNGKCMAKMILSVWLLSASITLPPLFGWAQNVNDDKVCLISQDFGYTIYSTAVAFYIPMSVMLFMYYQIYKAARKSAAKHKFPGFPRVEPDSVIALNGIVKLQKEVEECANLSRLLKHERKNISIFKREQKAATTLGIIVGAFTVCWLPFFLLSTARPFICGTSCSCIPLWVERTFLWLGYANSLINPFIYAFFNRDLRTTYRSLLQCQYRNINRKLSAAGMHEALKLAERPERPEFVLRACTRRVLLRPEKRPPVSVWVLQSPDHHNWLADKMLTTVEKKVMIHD
Assay: cAMP functional assay (LANCE Ultra TR-FRET), CHO-K1 cells
Hi there, I'd appreciate the recorded IC50 for every entry that follows.
Report the value in nM with no unit label.

Give IC50; test system human serotonin 5-HT7 receptor (Homo sapiens); compound COc1ccccc1N1CCN(CCOCCOc2c(C)cccc2Cl)CC1 [HBK-15]
220

Please report IC50 with human serotonin 5-HT7 receptor (Homo sapiens) for item COc1ccccc1N1CCN(CCOCCOc2c(C)cccc2C)CC1 [HBK-14] .
77

---

Molecular target: α1-adrenoceptor
Assay: Radioligand binding, [3H]-prazosin, rat cerebral cortex
Conditions: read-out: Adrenergic Ki α1
PARAMETER: Ki (µM)
Supply the numeric figure in µM, leaving out any unit text.

Consider the compound Cc1ccc(N(CC2=NCCN2)c2cccc(O)c2)cc1 [Phentolamine, phentolamine, reference compound] and give its recorded Ki.
0.009

Indicate the recorded Ki value for this compound: COc1ccccc1N1CCN(CCOCCOc2c(C)cccc2Cl)CC1
0.013

Consider the compound COc1ccccc1N1CCN(CCOCCOc2c(C)cccc2C)CC1 and give its recorded Ki.
0.023

---

Tested on: mice
Assay: Forced swim test (FST) in mice
Format: in vivo
Conditions: i.p., fluoxetine 10, reboxetine 5, bupropion 2.5, HBK-14 1.25, HBK-15 0.625 mg/kg
PARAMETER: Effect on immobility time, given alone at sub-effective dose

{"COMPOUND": "CNCCC(Oc1ccc(C(F)(F)F)cc1)c1ccccc1 (centres unmarked) [fluoxetine, reference compound]", "VALUE_MEASURED": "did not affect"}
{"COMPOUND": "CC(NC(C)(C)C)C(=O)c1cccc(Cl)c1 (centres unmarked) [bupropion, reference compound]", "VALUE_MEASURED": "did not affect"}
{"COMPOUND": "CCOc1ccccc1OC(c1ccccc1)C1CNCCO1 (centres unmarked) [reboxetine, reference compound]", "VALUE_MEASURED": "did not affect"}
